Value source: patent US7585871B2

For each entry below, report its melting point value.

Below, 3 molecules whose answers are already recorded.
> print(dat)
                                   molecule  readout.value
1  CC[C@H]1c2cc(F)ccc2-c2ccccc2N1C(=O)c1ccc(O)cc1  103 to 104 °C
2  CCC1c2cc(F)ccc2-c2ccccc2N1C(=O)c1ccc(O)cc1F (racemic)  109 to 111 °C
3  CC[C@@H]1c2cc(F)ccc2-c2ccccc2N1C(=O)c1cccc(O)c1  101 to 102 °C

Below are 5 molecules. Give each one its melting point.
1. C[C@H]1c2ccccc2-c2ccc(F)cc2N1C(=O)c1ccc(O)cc1 (single isomer, unassigned)
2. CC[C@@H]1c2cc(F)ccc2-c2ccccc2N1C(=O)c1ccc(O)cc1
3. C[C@@H]1c2ccccc2-c2ccc(Cl)cc2N1C(=O)c1ccc(O)cc1
4. C[C@H]1c2ccccc2-c2ccc(Cl)cc2N1C(=O)c1ccc(O)cc1
5. CC1c2ccccc2-c2ccc(F)cc2N1C(=O)c1cccc(O)c1 (racemic)

### Response
["236.6 to 237.8 °C", "105 to 106 °C", "273.5 to 276 °C", "273.7 to 276 °C", "163.9 to 165 °C"]

----------
# measurement.target: human ERα (Homo sapiens, UniProt P03372)
# Construct: expressed in transfected cells; host or cells: HAECT-1 cells (immortalized human aortic endothelial cells) infected with Ad5-wt-hERα adenovirus
# Sequence (P03372 1-595): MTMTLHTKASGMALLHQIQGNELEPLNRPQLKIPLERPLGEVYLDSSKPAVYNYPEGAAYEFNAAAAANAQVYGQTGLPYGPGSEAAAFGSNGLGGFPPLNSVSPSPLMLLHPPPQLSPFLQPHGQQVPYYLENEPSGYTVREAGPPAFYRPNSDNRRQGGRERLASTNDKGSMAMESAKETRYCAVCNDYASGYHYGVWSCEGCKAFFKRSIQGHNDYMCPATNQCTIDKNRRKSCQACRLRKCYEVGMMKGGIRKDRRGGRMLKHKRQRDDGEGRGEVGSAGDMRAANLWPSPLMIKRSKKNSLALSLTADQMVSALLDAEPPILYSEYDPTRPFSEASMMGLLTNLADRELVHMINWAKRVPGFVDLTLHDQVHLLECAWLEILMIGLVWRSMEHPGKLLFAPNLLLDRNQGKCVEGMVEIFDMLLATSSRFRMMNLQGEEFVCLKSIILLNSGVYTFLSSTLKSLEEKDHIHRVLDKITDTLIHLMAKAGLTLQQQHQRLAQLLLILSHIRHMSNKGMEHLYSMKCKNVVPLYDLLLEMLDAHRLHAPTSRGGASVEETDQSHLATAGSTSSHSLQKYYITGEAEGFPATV
# procedure.text: IL-6 luciferase (IL6-luc) assay in ERα infected HAECT-1 cells
# Type: cell-based
# protocol.conditions: efficacy relative to E2, value in parentheses after the IC50
Provide the recorded IL6-luc (% E2) for the entries that follow.
Numbers only, in %.

> print(dat)
                                   molecule  readout.value
1  C[C@H]1c2ccccc2-c2ccc(Cl)cc2N1C(=O)c1cccc(O)c1 [Example 26]             49
2  COc1cc(C(=O)N2c3ccccc3-c3ccc(F)cc3[C@H]2C)ccc1O [Example 17]            113
3  C[C@@H]1c2cc(F)ccc2-c2ccccc2N1C(=O)c1ccc(O)c(Br)c1 [Example 13]            102
4  C[C@@H]1c2cc(F)ccc2-c2ccccc2N1C(=O)c1cc(O)ccc1Br [Example 15]             76

Pending molecule:
### Prompt Could you tell me which IL6-luc (% E2) is on file for C[C@@H]1c2ccccc2-c2ccc(Cl)cc2N1C(=O)c1ccc(O)cc1 [Example 28] ?
### Response 120
